Value source: ChEMBL document CHEMBL3301361

- assay comment: physchem
- condition description: octan-1-ol/water, pH 7.4, LogD7.4
// Criterion not met strictly below 2 in logD; Criterion met otherwise

# molecule, classification
rows = [
    ("COc1cc(-c2nnc(S)n2-c2cccc(C(F)(F)F)c2)cc(OC)c1OC", "Criterion met"),
    ("OCCNCc1cc(Br)ccc1OCc1ccc(Cl)cc1", "Criterion met"),
    ("CC(C)CC(c1ccncc1)n1[nH]c(=O)c2nc3cc(Cl)ccc3c(O)c2c1=O (stereo not given)", "Criterion not met"),
    ("O=c1[nH]c(-c2ccc([N+](=O)[O-])cc2)nc2ccccc12", "Criterion met"),
    ("Cc1ccc(NC(=O)c2ccc(Cl)c(C(F)(F)F)c2)cc1C(=O)Nc1cccnc1", "Criterion met"),
    ("C[C@@]1(c2cc(-c3cncnc3)c(F)cc2F)CCSC(N)=N1", "Criterion not met"),
    ("O=C(NCc1ccccc1Cl)c1cccnc1Oc1ccccc1", "Criterion met"),
    ("C[C@H]1O[C@@H](n2cnc3c(N)nc(Oc4ccccc4)nc32)[C@H](O)[C@@H]1O", "Criterion not met"),
    ("CN(CC[C@@H](Oc1ccc(-c2ccccc2)cc1)c1ccc(F)cc1)CC(=O)O", "Criterion met"),
    ("Cn1cncc1-c1c2c(=O)n(CC#CCO)c(=O)n(CC3CC3)c2nn1Cc1ccnc2ccc(Cl)cc12", "Criterion met"),
    ("COc1cc(N2CCN(C(C)=O)CC2)ccc1Nc1ncc(Cl)c(-c2cnc3ccc(N(C)C)cn23)n1", "Criterion met"),
    ("COC[C@H](C)Oc1cc(Oc2ccc(S(C)(=O)=O)cc2)cc(C(=O)Nc2ccc(C(=O)O)cn2)c1", "Criterion not met"),
    ("C[C@H](NC1=NC(=O)C(C)(C(F)(F)F)S1)c1ccccc1F (stereo not given in full)", "Criterion met"),
    ("O=C(NC1Cc2ccccc2N(CCCO)C1=O)c1cc2cc(Cl)sc2[nH]1 (stereo not given)", "Criterion met"),
    ("Cc1cccc(-c2nn3c(c2-c2ccnc4ccc(C(N)=O)cc24)CCC3)n1", "Criterion not met"),
    ("COc1cc2c(N3CCN(C(=O)Nc4ccc(OC(C)C)cc4)CC3)ncnc2cc1OCCCN1CCCCC1", "Criterion met"),
    ("CN(c1ccnc(Nc2cccc(S(C)(=O)=O)c2)n1)c1cccc2[nH]ncc12", "Criterion met"),
    ("CC#Cc1ccnc(-c2cc(C3(C4CC4)N=C(C)C(N)=N3)ccc2O)c1 (stereo not given)", "Criterion met"),
    ("Nc1n[nH]c(Nc2ccccc2)n1", "Criterion not met"),
    ("COc1ccc(CNC(=O)Nc2ncc([N+](=O)[O-])s2)cc1", "Criterion met"),
]
